Target sequence: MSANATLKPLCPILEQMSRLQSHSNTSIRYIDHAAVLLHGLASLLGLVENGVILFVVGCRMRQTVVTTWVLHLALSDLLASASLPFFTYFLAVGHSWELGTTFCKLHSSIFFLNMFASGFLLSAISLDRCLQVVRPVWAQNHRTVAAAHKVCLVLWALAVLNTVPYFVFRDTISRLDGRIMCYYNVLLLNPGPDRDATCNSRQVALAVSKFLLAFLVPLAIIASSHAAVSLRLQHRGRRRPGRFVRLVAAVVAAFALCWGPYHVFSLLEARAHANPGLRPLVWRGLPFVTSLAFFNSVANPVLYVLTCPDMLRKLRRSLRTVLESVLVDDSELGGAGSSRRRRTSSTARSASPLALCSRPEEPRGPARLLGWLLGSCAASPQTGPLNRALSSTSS
readout-label: IC50 (nM)

I. Cc1noc(C)c1-c1ccc2c(c1)c(Sc1ccc(S(C)(=O)=O)cc1)c(C)n2CC(=O)O
II. Cc1c(Sc2ccc(S(C)(=O)=O)cc2)c2c(-c3cccs3)cccc2n1CC(=O)O
Could you point out whether the larger IC50 belongs to I or to II ? Returns: label corresponding to the selected item.
II
